Where do the numbers come from? From patent US20240309087A1.

# TARGET SYSTEM: T1, human CD112R on Jurkat CD112R effector cells (human, UniProt Q6DKI7 1-326)
# T1 sequence (looked up): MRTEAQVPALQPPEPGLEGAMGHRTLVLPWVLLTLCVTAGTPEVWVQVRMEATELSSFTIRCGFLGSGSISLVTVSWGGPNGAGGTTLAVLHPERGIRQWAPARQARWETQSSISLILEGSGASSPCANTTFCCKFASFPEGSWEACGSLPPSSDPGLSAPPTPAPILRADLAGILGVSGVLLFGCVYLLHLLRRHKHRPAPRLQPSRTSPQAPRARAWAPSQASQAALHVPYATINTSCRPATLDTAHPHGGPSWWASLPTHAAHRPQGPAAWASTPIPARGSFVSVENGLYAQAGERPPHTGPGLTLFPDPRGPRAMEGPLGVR
# MEASUREMENT PROTOCOL: cell-based or functional assay
VALUE KIND: Relative activity (%), EC50 Ref/EC50 antibody
Your answer is read as %, so omit the unit and give the number.

Take a look at these entries with their results.
Chi-61 (antibody, V domains shown, chimeric) VH: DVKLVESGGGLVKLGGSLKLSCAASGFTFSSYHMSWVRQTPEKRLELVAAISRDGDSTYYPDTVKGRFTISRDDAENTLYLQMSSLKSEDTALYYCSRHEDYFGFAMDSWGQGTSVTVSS VL: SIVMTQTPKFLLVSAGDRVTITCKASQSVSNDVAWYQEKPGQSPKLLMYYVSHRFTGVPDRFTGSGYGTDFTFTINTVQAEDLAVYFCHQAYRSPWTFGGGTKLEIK: 1590
Chi-47 (antibody, V domains shown, chimeric) VH: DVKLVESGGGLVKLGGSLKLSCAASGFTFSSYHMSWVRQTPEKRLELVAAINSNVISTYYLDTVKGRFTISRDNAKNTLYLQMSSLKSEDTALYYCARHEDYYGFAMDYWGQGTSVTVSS VL: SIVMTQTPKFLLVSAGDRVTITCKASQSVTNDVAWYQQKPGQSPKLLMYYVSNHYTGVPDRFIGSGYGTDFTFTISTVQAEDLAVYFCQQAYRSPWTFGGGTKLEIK: 2230

Now take the following binder into account.
### Prompt Identify measured Relative activity (%), EC50 Ref/EC50 antibody associated with Chi-45 (antibody, V domains shown, chimeric) VH: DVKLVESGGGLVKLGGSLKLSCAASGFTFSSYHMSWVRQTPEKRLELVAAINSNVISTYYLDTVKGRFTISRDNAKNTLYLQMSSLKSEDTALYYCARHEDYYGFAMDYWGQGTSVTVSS VL: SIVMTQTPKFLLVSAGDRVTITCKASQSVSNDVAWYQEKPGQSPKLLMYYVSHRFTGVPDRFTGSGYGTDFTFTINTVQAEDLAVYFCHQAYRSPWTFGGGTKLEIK
### Response 2710
